Data origin: PubChem BioAssay AID1220

Could you please report measured inhibition for the items listed next?
- Tested Target: Mannose-6-phosphate isomerase (Homo sapiens) (UniProt P34949)
- Sequence (P34949 whole entry, looked up): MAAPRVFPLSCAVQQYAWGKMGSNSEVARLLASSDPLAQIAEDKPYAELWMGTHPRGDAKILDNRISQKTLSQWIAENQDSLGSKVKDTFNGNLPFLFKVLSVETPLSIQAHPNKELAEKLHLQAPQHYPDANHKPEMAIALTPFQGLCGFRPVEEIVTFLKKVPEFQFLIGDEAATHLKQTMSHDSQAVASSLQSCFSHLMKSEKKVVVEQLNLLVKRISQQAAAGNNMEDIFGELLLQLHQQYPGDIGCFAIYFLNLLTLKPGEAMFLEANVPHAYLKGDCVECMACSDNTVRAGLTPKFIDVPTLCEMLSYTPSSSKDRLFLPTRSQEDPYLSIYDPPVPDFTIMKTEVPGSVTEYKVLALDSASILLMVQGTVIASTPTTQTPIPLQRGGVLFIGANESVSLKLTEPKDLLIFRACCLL
- Assay Remarks: MPI inhibition at elevated mannose 6-phosphate – biochemical, fluorescence intensity, high mannose 6-phosphate, primary screen (AID 1220)
- Conditions Used: recombinant PMI enzyme, coupled fluorescence intensity; at 20 µM; stronger effect = higher value
About 1,300 (0.68%) of roughly 190,000 compounds were called active. Shown is part of a subset that was picked to be rich in actives.
Answers are plain numbers, in %.

> print(dat)
                                   molecule                             tested.target  result.number
1  Cc1ccc(-n2nnnc2Sc2nc([N+](=O)[O-])nn2C)cc1  Mannose-6-phosphate isomerase (Homo sapiens) (UniProt P34949)           18.5

Look up inhibition for the entries below, preserving their order.
1. CCCNC(=O)c1ccc2nc(-c3ccccc3)c(-c3ccccc3)nc2c1
2. Cc1cccc(N2CCN(C(=O)c3ccccn3)CC2C)c1 (stereo unspecified)

Result:
11.1
9.3

Items follow; give inhibition for each.
1. CCn1c(SCC(=O)N/N=C/C=C/c2ccco2)nnc1-c1ccccc1
2. CCn1c(SCC(=O)N/N=C/C(C)=C/c2ccco2)nnc1-c1ccccc1
3. CCOc1cc(CNCc2ccncc2)cc(Br)c1OCc1ccc(F)cc1

Result:
[-8.3, 43.3, 5.1]

###

- Tested Target: Mannose-6-phosphate isomerase (Homo sapiens) (UniProt P34949)
- Assay Remarks: MPI inhibition at elevated mannose 6-phosphate – biochemical, fluorescence intensity, high mannose 6-phosphate, primary screen (AID 1220)
- Conditions Used: recombinant PMI enzyme, coupled fluorescence intensity; at 20 µM; stronger effect = higher value
Among all 190,000 compounds or so, about 1,300 (0.68%) were called active. This excerpt belongs to a sample that is enriched for actives.
Assay Readout: inhibition (%)
Numbers only, in %.

> print(dat)
                            compound.smiles  reading.unit  result.number
1  Cc1nn(-c2ccccc2)c2[nH]c(=O)c(CNc3ccc4c(c3)OCCO4)cc12             %           54.2
2  Cc1nn(-c2ccccc2)c2[nH]c(=O)c(CNc3ccc(N4CCOCC4)cc3)cc12             %           55.6
3  CC(C)(C)c1nn(-c2ccccc2)c2[nH]c(=O)c(CNc3ccc4c(c3)OCCO4)cc12             %            5.7

Fill in inhibition for each of the 2 compounds listed.
1. Cc1nn(-c2ccccc2)c2[nH]c(=O)c(CNCCN3CCOCC3)cc12
2. CCc1ccc(NCc2cc3c(C)nn(-c4ccccc4)c3[nH]c2=O)cc1

Result:
4.3
8.8

###

- Tested Target: Mannose-6-phosphate isomerase (Homo sapiens) (UniProt P34949)
- Assay Remarks: MPI inhibition at elevated mannose 6-phosphate – biochemical, fluorescence intensity, high mannose 6-phosphate, primary screen (AID 1220)
- Conditions Used: recombinant PMI enzyme, coupled fluorescence intensity; at 20 µM; stronger effect = higher value
The whole screen tested about 190,000 compounds, of which about 1,300 (0.68%) were called active. The sample holds actives, similar compounds and a random draw of the others, so the mix is not that of the screen.
Assay Readout: inhibition

Parameter requested: inhibition. Apply to each item below.
1. CCCN1CCN(CCCNC(=S)Nc2ccc(OC)cc2)CC1
2. Cc1nnc(SCC(=O)NC2CCCCC2)n(N)c1=O
3. O=C(O)c1ccccc1NS(=O)(=O)c1ccc2c3c(cccc13)C(=O)N2

Result:
6.6% (inactive)
-2.5% (inactive)
-2% (inactive)

List reported inhibition for each of these compounds:
1. O=S(=O)(Nc1cccc2[nH]ncc12)c1cccs1
2. O=C(NC1CCCc2ccccc21)c1ccc2c(c1)OCO2 (stereo unspecified)
3. O=C(NC1CCCCC1)C(c1ccco1)N(Cc1ccco1)C(=O)c1ccco1 (stereo unspecified)

Result:
["5.1% (inactive)", "8.7% (inactive)", "-4.5% (inactive)"]

Provide inhibition for all items below, preserving their order.
1. COc1ccc(/C=N/c2c(-c3ccc(OC)cc3)nc3n2CCS3)cc1
2. Cc1cc(C)nc(SCCn2c(N3CCC(C)CC3)nc3c2c(=O)n(C)c(=O)n3C)n1

Result:
57.2% (active)
12.2% (inactive)

Below are some compounds; for each one, tell me its inhibition.
1. CCC(C)c1ccc(NC(=S)NCCn2cc(Br)cn2)cc1 (stereo unspecified)
2. Clc1ccc(/C=N/c2c(-c3ccc(Cl)cc3)nc3n2CCS3)cc1
3. O=C1Nc2ccc(NS(=O)(=O)c3cccs3)c3cccc1c23

Result:
1. 14.5% (inactive)
2. 0.3% (inactive)
3. 65.7% (active)

###

- Tested Target: Mannose-6-phosphate isomerase (Homo sapiens) (UniProt P34949)
- Assay Remarks: MPI inhibition at elevated mannose 6-phosphate – biochemical, fluorescence intensity, high mannose 6-phosphate, primary screen (AID 1220)
- Conditions Used: recombinant PMI enzyme, coupled fluorescence intensity; at 20 µM; stronger effect = higher value
Hit rate of the full screen: of about 190,000 compounds, about 1,300 (0.68%) were called active. What follows is part of a selection rich in actives, with near analogues and random picks from the rest.
Assay Readout: inhibition (%)
Answers are plain numbers, in %.

Could you tell me inhibition for each of these compounds? They are listed below.
1. O=C(COc1ncnc2cc([N+](=O)[O-])ccc12)N(CCc1ccccc1)Cc1ccccc1
2. CC(C)C(=O)NC(=S)Nc1ccc(S(=O)(=O)NC(C)(C)C)cc1
3. COc1ccc(N/C=C(\C(C)=O)c2ccc(OC)c(OC)c2)cc1OC

Result:
1. 16.7
2. -1.7
3. 42.8

Report inhibition for each item below.
1. COc1ccc(-c2noc(-c3cccnc3)n2)cc1OC
2. Cc1ccc(N=Cc2ccc(N(C)C)cc2)cc1C
3. COc1ccc2ccccc2c1C1CC(=O)N2CN(C3CCCCC3)CSC2=C1C#N (stereo not given)
4. C=CCNC(=S)Nc1ccccc1
5. O=C(Nc1nc2ccc(F)cc2s1)C1CCN(S(=O)(=O)c2cc([N+](=O)[O-])ccc2Cl)CC1

Result:
1: -11.6; 2: 10; 3: 52.1; 4: 9; 5: 13.7

I have 7 compounds here; please give me inhibition for each one.
1. C=CCn1c(SCC(=O)NC(=O)NC)nnc1C1CCCCC1
2. Cc1ccc(C(=O)N/C(=C\c2cccs2)c2nc3ccccc3[nH]2)cc1
3. c1ccc(CCn2nnnc2C(c2cccnc2)N2CCN(c3nc4ccccc4s3)CC2)cc1 (stereo not given)
4. COc1ccc(/C(=C/Nc2cccc(Br)c2)C(C)=O)cc1OC
5. O=C(c1ccc(OC2CCN(Cc3ccccn3)CC2)cc1)N1CCCC(O)C1 (stereo not given)
6. COc1ccc(N(Cc2cc3cc(OC)ccc3[nH]c2=O)C(=O)C2CCCO2)cc1 (stereo not given)
7. CN(C)c1ccc(N=Cc2ccco2)cc1

Result:
[-11.2, 57.5, 15.2, 4.4, -8.1, 7.7, 63.2]

###

- Tested Target: Mannose-6-phosphate isomerase (Homo sapiens)
- Assay Remarks: MPI inhibition at elevated mannose 6-phosphate – biochemical, fluorescence intensity, high mannose 6-phosphate, primary screen (AID 1220)
- Conditions Used: recombinant PMI enzyme, coupled fluorescence intensity; at 20 µM
Screen size: about 190,000 compounds; about 1,300 (0.68%) were called active. No stated cut-off is given here; in the data, active means inhibition above about 50%; inactive means the rest. Shown is part of a subset that was picked to be rich in actives.
Please state which outcome applies, choosing from true (1) (active), false (0) (inactive)

Previously resolved entries follow.
> print(dat)
                                   compound                             tested.target  assigned.category
1   O=c1[nH]c2ccccc2c(O)c1-c1cc2ccccc2oc1=O  Mannose-6-phosphate isomerase (Homo sapiens)          false (0)
2  Cc1ccc(NC(=S)N2CCN(S(=O)(=O)c3c(F)cccc3F)CC2)cc1C  Mannose-6-phosphate isomerase (Homo sapiens)          false (0)
3  CCOc1cc(N2CCOCC2)c(OCC)cc1NC(=O)COc1ccccc1[N+](=O)[O-]  Mannose-6-phosphate isomerase (Homo sapiens)          false (0)
4  O=C(CCNS(=O)(=O)c1cccs1)NC1CCN(Cc2ccccc2)CC1  Mannose-6-phosphate isomerase (Homo sapiens)          false (0)
5  CCOc1cc(C(c2c(C)[nH][nH]c2=O)c2c(C)[nH][nH]c2=O)ccc1O  Mannose-6-phosphate isomerase (Homo sapiens)          false (0)

Please look at the following compound next.
Query: What outcome does the record of this test show for O=C(c1ccccc1)c1cc2ccccc2o1 ?
Result: false (0)

###

- Tested Target: Mannose-6-phosphate isomerase (Homo sapiens) (UniProt P34949)
- Assay Remarks: MPI inhibition at elevated mannose 6-phosphate – biochemical, fluorescence intensity, high mannose 6-phosphate, primary screen (AID 1220)
- Conditions Used: recombinant PMI enzyme, coupled fluorescence intensity; at 20 µM; stronger effect = higher value
The campaign covered roughly 190,000 compounds. About 1,300 (0.68%) were called active. The entries come from a sample that favours actives as a whole.
What inhibition was measured for each of the following?
Answers are plain numbers, in %.

> print(dat)
                            compound.smiles  reading.unit  result.number
1  COc1cccc(OC)c1C(=O)NC(=S)Nc1ccc2oc(=O)ccc2c1             %           10.5
2                  C=CCNC(=S)Nc1ccc2nsnc2c1             %            9.9
3   S=C(NCc1ccc(Cl)c(Cl)c1)Nc1ccc2c(c1)OCO2             %           10.2
4  O=C(Nc1ccc(S(=O)(=O)NCc2ccccc2)cc1)Nc1ccc2c(c1)OCO2             %            8.6
5                    NC(=S)Nc1ccc2c(c1)OCO2             %            1.7
6  NS(=O)(=O)c1ccc(NC(=S)NCc2ccc3c(c2)OCO3)cc1             %           17.1

Batch of 2 compounds: report inhibition for each.
1. C=CCN(CC=C)C(=S)Nc1ccc2nsnc2c1
2. Cn1ccc(C(=O)OCC(=O)Nc2cccc3ccccc23)n1

Result:
[55.3, 0.8]
